meta.source: ChEMBL document CHEMBL1157640

Overview of recorded inhibition for various molecules
target: LL-diaminopimelate aminotransferase, chloroplastic (Arabidopsis thaliana); experiment: Inhibition of Arabidopsis thaliana LL-DAP-AT expressed in Escherichia coli at 10 uM by aminobenzaldehyde-based assay
property.measured: inhibition (%)

>>> print(df.to_string())
                                    molecule  property_measured  reading
 0  CC(=O)c1ccc(Nc2nc(-c3cc4ccccc4oc3=O)cs2)cc1         inhibition       16
 1  Cc1[nH]n(-c2ccccc2)c(=O)c1C=C1C(=O)N(C)C(=O)N(C)C1=O         inhibition       20
 2  O=C1OC(c2ccccc2Cl)=N/C1=C/c1ccc(OC(=O)c2ccccc2Cl)c(O)c1         inhibition       30
 3            COc1ccc(/C=C2\SC(=S)NC2=O)cc1I         inhibition       29
 4  CCN1C(=O)/C(=C/c2cc(Cc3ccccc3Cl)ccc2O)SC1=S         inhibition       13
 5    C=C(C)COc1ccc2c(c1)oc(=O)c1cc(OC)ccc12         inhibition       25
 6  COc1ccc(N2C(=O)NC(=O)/C(=C/c3ccc(-c4cccc(Cl)c4)o3)C2=O)cc1         inhibition       20
 7  Cc1ccc(N2C(=O)/C(=C\c3cc4ccccc4[nH]3)C(=O)NC2=S)cc1         inhibition       16
 8  O=C(Cn1c(/C=C2/C(=O)NC(=S)N(c3ccccc3)C2=O)cc2ccccc21)Nc1ccccc1         inhibition       45
 9  Cc1ccsc1/C=C1\SC(=S)N(CC2CCCO2)C1=O (stereo unspecified)         inhibition       14
10    Cc1nc(C)c(C(=O)/C=C2/Nc3ccccc3NC2=O)s1         inhibition       18
11  COc1cc(OC)c(OC)cc1/C=N/n1c(S)nnc1-c1ccc(C)cc1         inhibition       18
12  COc1ccc(/C=C2/C=C(c3ccccc3)OC2=O)c(OC)c1         inhibition       14
13        Cc1cc(C=C2C(=O)NC(=S)NC2=O)c(C)n1C         inhibition       15
14  C=CCN1C(=O)/C(=C\c2cc3ccccc3n2Cc2ccc([N+](=O)[O-])cc2)C(=O)NC1=S         inhibition       33
15  CCOC(=O)C1=C(Nc2ccc(OC)cc2)S/C(=C\c2ccc(N(C)C)cc2)C1=O         inhibition       22
16  C=CCN1C(=O)/C(=C2/C(=O)N(S(=O)(=O)c3ccc(OC)cc3)c3ccccc32)SC1=S         inhibition       18
17  Cc1ccc(NC(=O)/C(C#N)=C/c2ccc(N(C)C)o2)cc1C         inhibition       14
18  O=C1NC(=S)N(c2cccc(Br)c2)C(=O)/C1=C\c1ccco1         inhibition       17
19  COc1ccc(C=C2C(=O)NC(=S)NC2=O)cc1OCc1ccccc1Cl         inhibition       48
20  COc1ccc(OC)c(Nc2nc3ccccc3nc2NS(=O)(=O)c2cccc([N+](=O)[O-])c2)c1         inhibition       13

====

Overview of recorded IC50 for various compounds
molecular target: LL-diaminopimelate aminotransferase, chloroplastic (Arabidopsis thaliana, UniProt Q93ZN9); test: Inhibition of Arabidopsis thaliana LL-DAP-AT expressed in Escherichia coli by aminobenzaldehyde-based assay; settings: read-out: IC50
Sequence (Q93ZN9 whole entry): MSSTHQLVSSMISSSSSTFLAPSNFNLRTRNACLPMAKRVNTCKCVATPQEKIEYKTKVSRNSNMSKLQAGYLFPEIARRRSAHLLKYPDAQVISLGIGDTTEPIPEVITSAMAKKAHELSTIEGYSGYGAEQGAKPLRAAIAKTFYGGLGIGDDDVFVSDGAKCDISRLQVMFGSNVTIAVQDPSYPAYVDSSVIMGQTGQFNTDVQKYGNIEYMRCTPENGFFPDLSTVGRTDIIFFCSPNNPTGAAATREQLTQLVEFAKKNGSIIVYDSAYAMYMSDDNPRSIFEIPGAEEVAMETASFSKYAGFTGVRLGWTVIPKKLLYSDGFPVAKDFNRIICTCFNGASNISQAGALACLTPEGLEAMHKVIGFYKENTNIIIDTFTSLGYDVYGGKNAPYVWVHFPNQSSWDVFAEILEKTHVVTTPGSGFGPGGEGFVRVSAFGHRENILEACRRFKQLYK
property.measured: IC50 (µM)

>>> print(df.to_string())
                                   compound                           subject_of_test  property_measured  rel  reading
0  O=C(N/N=C/c1ccc(O)cc1O)c1[nH]c2ccc([N+](=O)[O-])cc2c1-c1ccccc1  LL-diaminopimelate aminotransferase, chloroplastic (Arabidopsis thaliana, UniProt Q93ZN9)               IC50    =       45
1          CN(C)c1ccc(/C=C2\SC(=S)NC2=O)cc1  LL-diaminopimelate aminotransferase, chloroplastic (Arabidopsis thaliana, UniProt Q93ZN9)               IC50    =      127
2  C=CCN1C(=O)/C(=C\c2cc3ccccc3n2Cc2ccc([N+](=O)[O-])cc2)C(=O)NC1=S  LL-diaminopimelate aminotransferase, chloroplastic (Arabidopsis thaliana, UniProt Q93ZN9)               IC50    =       69
3  Cc1[nH]n(-c2ccccc2)c(=O)c1C=C1C(=O)N(C)C(=O)N(C)C1=O  LL-diaminopimelate aminotransferase, chloroplastic (Arabidopsis thaliana, UniProt Q93ZN9)               IC50    =       45
4  C=CCN1C(=O)/C(=C\c2cc3ccccc3n2C)C(=O)NC1=S  LL-diaminopimelate aminotransferase, chloroplastic (Arabidopsis thaliana, UniProt Q93ZN9)               IC50    =       75
5             O=C1NC(=S)S/C1=C\c1ccc(Cl)cc1  LL-diaminopimelate aminotransferase, chloroplastic (Arabidopsis thaliana, UniProt Q93ZN9)               IC50    >      200
6    COc1ccc(/C=C2\SC(=S)N(NC(C)=O)C2=O)cc1  LL-diaminopimelate aminotransferase, chloroplastic (Arabidopsis thaliana, UniProt Q93ZN9)               IC50    >      200
7  Cc1ccc(S(=O)(=O)N2C(=O)/C(=C3\SC(=S)NC3=O)c3ccccc32)cc1  LL-diaminopimelate aminotransferase, chloroplastic (Arabidopsis thaliana, UniProt Q93ZN9)               IC50    =       70
8  Cc1ccsc1/C=C1\SC(=S)N(C(C)c2ccccc2)C1=O (stereo not given)  LL-diaminopimelate aminotransferase, chloroplastic (Arabidopsis thaliana, UniProt Q93ZN9)               IC50    =      127
9  CCOC(=O)C1=C(Nc2ccc([N+](=O)[O-])cc2)S/C(=C\c2ccc(N(C)C)cc2)C1=O  LL-diaminopimelate aminotransferase, chloroplastic (Arabidopsis thaliana, UniProt Q93ZN9)               IC50    =      141
